System: ACHN renal
assay explanation: NCI-60 one-dose screen, 48 h (100 = growth as untreated, 0 = no growth, -100 = all killed)
conditions used: 10 µM unless noted
About 83,000 compounds went through this panel and 20% of them were active in at least one assay; those are over-represented in the sample as a whole.
// NB: equality with 50% counts as no; only growth strictly below is yes

- compound: "CO[C@H](/C(C)=C/C=C/C(C)=C/c1coc(C)n1)[C@H](C)[C@H]1C[C@@H](O)[C@@]2(C)O[C@H]2/C=C/[C@@H](C)[C@@H]2C[C@@H](CC(=O)O2)C[C@H]2O[C@@H]2C(=O)O1"
  answer label: "yes"
- compound: "CN1CCN(c2ccc([N+](=O)[O-])c3no[n+]([O-])c23)CC1"
  answer label: "yes"
- compound: "CC[n+]1c(-c2ccccc2)c2cc(N)ccc2c2ccc(N)cc21"
  answer label: "no"
- compound: "CCC(=O)OC1CCn2c1nc1c2C(=O)C(C)=C(N2CC2)C1=O (centres undefined)"
  answer label: "yes"
- compound: "CCCCCCCCCCCC1CCCC(C)N1 (centres undefined)"
  answer label: "no"

QUERY: Below 50% on growth? Entry O=C1c2ccccc2C(=O)C(Cl)C1Cl (centres undefined)
RESULT: yes

QUERY: Below 50% on growth? Entry CC[C@@]1(O)C[C@H](OC2CC(N(C)C)C(OC3CC(O)C(OC4CCC(=O)C(C)O4)C(C)O3)C(C)O2)c2c(cc3c(c2O)C(=O)c2c(O)ccc(O)c2C3=O)[C@H]1C(=O)OC (some centres undefined)
RESULT: yes

QUERY: Just wondering, is growth of Cc1ccc(C(=O)OC(C(=O)O)C(OC(=O)c2ccc(C)cc2)C(=O)O)cc1 (centres undefined) (tested in a mixture with another compound) below 50%?
RESULT: no

QUERY: hey, is growth for "NCCc1ccc(OCc2ccccc2)c(OCc2ccccc2)c1" lower than 50% or not?
RESULT: no
